assay.target: human BCRP (Homo sapiens, UniProt Q9UNQ0)
Sequence (Q9UNQ0 whole entry): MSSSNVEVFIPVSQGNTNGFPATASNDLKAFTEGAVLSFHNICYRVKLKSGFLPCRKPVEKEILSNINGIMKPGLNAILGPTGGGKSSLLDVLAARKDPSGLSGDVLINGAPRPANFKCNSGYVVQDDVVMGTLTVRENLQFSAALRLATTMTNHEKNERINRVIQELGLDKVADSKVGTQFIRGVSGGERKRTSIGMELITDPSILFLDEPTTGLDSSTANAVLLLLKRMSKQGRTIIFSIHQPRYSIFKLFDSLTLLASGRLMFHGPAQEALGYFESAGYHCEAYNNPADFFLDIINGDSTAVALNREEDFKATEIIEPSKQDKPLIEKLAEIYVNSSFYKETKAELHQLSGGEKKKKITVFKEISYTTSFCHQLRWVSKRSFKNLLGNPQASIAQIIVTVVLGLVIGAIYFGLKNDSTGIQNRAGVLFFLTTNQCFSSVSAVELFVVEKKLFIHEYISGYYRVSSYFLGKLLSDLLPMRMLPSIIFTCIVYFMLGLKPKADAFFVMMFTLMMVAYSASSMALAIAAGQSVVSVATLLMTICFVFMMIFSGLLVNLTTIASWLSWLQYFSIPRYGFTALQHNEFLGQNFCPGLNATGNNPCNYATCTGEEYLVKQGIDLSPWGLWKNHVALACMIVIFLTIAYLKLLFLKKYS
assay.text: Polyphenol modulation of BCRP-mediated OTA efflux in MDCK-II cells
Description: The concentrations of polyphenols tested were as follows: ECG and miquelianin: 100, 200, 400, 600, 800, 1000 μM; caffeic acid: 50, 100, 500, 1000, 5000, 10,000 μM; luteolin: 0.1, 1, 10, 20, 25, 40, 50, 60, 100, 150 μM; myricetin: 5, 10, 50, 100, 250, 500, 650, 750, 850, 1000 μM. All other assay conditions were as described above. […]
measured.attribute: EC50 (µM)
Give the value, in units of µM, as a plain number.

Value wanted: EC50 (human BCRP (Homo sapiens, UniProt Q9UNQ0)) of entry O=C(O)/C=C/c1ccc(O)c(O)c1 [caffeic acid] 714

Origin of the recorded values: paper PMC12655426
